inhibition values by entry
Molecular target: Voltage-dependent N-type calcium channel subunit alpha-1B (Homo sapiens, UniProt Q00975)
Sequence (Q00975 whole entry, looked up): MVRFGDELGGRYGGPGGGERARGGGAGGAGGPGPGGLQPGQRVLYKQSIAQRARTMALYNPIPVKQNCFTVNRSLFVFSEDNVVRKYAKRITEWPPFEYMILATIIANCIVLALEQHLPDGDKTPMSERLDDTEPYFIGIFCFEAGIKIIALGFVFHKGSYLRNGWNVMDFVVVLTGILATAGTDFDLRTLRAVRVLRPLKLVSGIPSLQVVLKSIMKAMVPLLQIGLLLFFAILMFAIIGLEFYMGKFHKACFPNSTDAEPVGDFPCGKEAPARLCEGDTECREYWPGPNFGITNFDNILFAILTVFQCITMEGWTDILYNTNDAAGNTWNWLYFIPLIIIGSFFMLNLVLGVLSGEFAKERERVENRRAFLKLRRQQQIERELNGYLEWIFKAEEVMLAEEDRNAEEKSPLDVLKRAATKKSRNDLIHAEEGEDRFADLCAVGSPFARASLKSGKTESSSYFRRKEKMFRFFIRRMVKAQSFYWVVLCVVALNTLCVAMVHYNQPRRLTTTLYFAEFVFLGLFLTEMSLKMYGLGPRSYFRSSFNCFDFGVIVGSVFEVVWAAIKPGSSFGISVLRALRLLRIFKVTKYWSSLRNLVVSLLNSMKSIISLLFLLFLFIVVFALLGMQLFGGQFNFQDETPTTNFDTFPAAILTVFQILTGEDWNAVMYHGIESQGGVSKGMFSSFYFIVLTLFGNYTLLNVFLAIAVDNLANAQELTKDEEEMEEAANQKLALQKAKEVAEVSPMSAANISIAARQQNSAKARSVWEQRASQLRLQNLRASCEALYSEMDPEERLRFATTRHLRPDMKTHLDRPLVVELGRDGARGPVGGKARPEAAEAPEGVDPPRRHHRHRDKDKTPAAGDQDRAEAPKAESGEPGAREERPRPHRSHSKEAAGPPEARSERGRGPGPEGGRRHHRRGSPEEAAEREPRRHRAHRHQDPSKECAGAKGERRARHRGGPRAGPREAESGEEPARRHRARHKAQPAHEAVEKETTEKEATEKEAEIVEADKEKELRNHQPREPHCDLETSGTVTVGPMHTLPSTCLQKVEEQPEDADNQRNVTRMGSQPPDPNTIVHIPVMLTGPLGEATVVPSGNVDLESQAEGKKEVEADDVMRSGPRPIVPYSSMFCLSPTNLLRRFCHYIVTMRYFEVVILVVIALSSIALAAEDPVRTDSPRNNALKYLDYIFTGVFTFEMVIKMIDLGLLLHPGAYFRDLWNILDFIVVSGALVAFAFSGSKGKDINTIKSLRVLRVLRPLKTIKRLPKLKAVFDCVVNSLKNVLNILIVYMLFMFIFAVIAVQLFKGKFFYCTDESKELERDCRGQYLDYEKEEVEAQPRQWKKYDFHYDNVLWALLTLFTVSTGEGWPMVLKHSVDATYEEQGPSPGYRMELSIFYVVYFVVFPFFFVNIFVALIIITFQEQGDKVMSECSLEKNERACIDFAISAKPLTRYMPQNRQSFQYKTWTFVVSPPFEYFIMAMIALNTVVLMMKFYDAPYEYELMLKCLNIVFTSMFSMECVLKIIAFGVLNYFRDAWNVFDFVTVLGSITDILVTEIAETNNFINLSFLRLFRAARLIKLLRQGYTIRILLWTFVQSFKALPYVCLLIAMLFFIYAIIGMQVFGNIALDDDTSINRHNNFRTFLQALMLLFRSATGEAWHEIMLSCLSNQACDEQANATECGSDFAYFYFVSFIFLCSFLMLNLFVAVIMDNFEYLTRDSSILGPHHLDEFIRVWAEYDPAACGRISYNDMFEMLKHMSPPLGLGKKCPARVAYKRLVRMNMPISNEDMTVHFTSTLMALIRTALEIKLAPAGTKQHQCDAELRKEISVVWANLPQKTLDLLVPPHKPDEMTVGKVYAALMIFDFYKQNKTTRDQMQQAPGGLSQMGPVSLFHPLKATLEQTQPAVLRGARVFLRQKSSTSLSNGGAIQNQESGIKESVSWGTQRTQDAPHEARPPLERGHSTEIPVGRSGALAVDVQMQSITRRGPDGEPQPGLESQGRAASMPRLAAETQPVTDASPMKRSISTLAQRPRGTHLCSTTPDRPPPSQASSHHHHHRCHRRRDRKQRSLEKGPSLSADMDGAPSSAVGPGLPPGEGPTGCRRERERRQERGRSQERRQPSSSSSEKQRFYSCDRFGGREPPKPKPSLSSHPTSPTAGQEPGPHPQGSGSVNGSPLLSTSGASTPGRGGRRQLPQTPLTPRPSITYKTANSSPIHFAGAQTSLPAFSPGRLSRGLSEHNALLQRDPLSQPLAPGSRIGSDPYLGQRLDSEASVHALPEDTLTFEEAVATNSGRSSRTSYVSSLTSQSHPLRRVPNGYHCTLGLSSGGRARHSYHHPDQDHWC
Test: Inhibition of human Cav2.2 channel transfected in HEK293T cells co-expressed with human GABAB receptor assessed as inhibition of Cav2.2-mediated Ba2+ current at 100 nM measured for 3 to 5 days by whole-cell patch clamp assay
Type: cell-based
Details: time 3-5 day
property: inhibition (%)

[[record]]
substance = "H-GRYRSPYDRRRRYRRITA-NH2"
obs_value = 10

[[record]]
substance = "H-GRYRSPYDRRRRYRRATD-NH2"
obs_value = 80

[[record]]
substance = "H-GRYRSPADRRRRYRRITD-NH2"
obs_value = 60

[[record]]
substance = "H-GRARSPYDRRRRYRRITD-NH2"
obs_value = 10

[[record]]
substance = "H-GRYRSPYDRRRRYARITD-NH2"
obs_value = 10

[[record]]
substance = "H-GRYRSPYDARRRYRRITD-NH2"
obs_value = 50

[[record]]
substance = "H-GRYRSPYARRRRYRRITD-NH2"
obs_value = 50

[[record]]
substance = "H-GRYRSPYDRRRAYRRITD-NH2"
obs_value = 10


###

inhibition values by entry
Biological target: Neuronal acetylcholine receptor; alpha9/alpha10 (Homo sapiens) (UniProt Q9UGM1+Q9GZZ6)
Experiment: Antagonist activity at human wild type alpha9alpha10 nAChR expressed in acetylcholine-induced Xenopus laevis oocytes assessed as inhibition of acetylcholine-induced current at 30 nM by two electrode voltage-clamp assay relative to control
Assay type: cell-based
Details: Oocyte
property: inhibition (%)

[[record]]
substance = "H-GDYRSPYDRRRRYRRITD-NH2"
property = "inhibition"
obs_value = 0

[[record]]
substance = "H-GRYRSPYDRARRYRRITD-NH2"
property = "inhibition"
obs_value = 20

[[record]]
substance = "H-GRYRSDYDRRRRYRRITD-NH2"
property = "inhibition"
obs_value = 0

[[record]]
substance = "H-GRYDSPYDRRRRYRRITD-NH2"
property = "inhibition"
obs_value = 0

[[record]]
substance = "H-GRYRSPYDRRRRYRRIAD-NH2"
property = "inhibition"
obs_value = 20

[[record]]
substance = "H-GRYAAPYDRRRRYRRITD-NH2"
property = "inhibition"
obs_value = 20


###

Target: Neuronal acetylcholine receptor; alpha9/alpha10 (Homo sapiens) (UniProt Q9UGM1+Q9GZZ6)
Experiment: Antagonist activity at human wild type alpha9alpha10 nAChR expressed in acetylcholine-induced Xenopus laevis oocytes assessed as inhibition of acetylcholine-induced current at 30 nM by two electrode voltage-clamp assay relative to control
Assay type: cell-based
Conditions: Oocyte, filed as antagonist
Calls of active or inactive are those of the source. The calls are words filed in the database; no cut-off is given here.
property: inhibition

[[record]]
substance = "H-GRYRSPYDRRRRARRITD-NH2"
property = "inhibition"
obs_value = "Active"

[[record]]
substance = "H-GRYRRPYDRRRRYRRITD-NH2"
property = "inhibition"
obs_value = "> 80%"

[[record]]
substance = "H-GRYRSPYDRRRAYRRITD-NH2"
property = "inhibition"
obs_value = "Active"

[[record]]
substance = "H-GRYRSPDDRRRRYRRITD-NH2"
property = "inhibition"
obs_value = "Active"

[[record]]
substance = "H-GRYRSPYDRRRRYRRRTD-NH2"
property = "inhibition"
obs_value = "> 80%"

[[record]]
substance = "H-GRDRSPYDRRRRYRRITD-NH2"
property = "inhibition"
obs_value = "Active"

[[record]]
substance = "H-GRYRSPYDRRRRYARITD-NH2"
property = "inhibition"
obs_value = "Active"

[[record]]
substance = "H-GRYRSPYDRRARYRRITD-NH2"
property = "inhibition"
obs_value = "Active"


###

Target: Neuronal acetylcholine receptor; alpha9/alpha10 (Homo sapiens) (UniProt Q9UGM1+Q9GZZ6)
Assay: Antagonist activity at human wild type alpha9alpha10 nAChR expressed in acetylcholine-induced Xenopus laevis oocytes assessed as inhibition of acetylcholine-induced current at 30 nM by two electrode voltage-clamp assay relative to control
Format: cell-based
Conditions: Oocyte
inhibition values by entry
property: inhibition

[[record]]
substance = "H-GRYASPYDRRRRYRRITD-NH2"
target_or_test_system = "Neuronal acetylcholine receptor; alpha9/alpha10 (Homo sapiens) (UniProt Q9UGM1+Q9GZZ6)"
obs_value = "20%"

[[record]]
substance = "H-GRARSPYDRRRRYRRITD-NH2"
target_or_test_system = "Neuronal acetylcholine receptor; alpha9/alpha10 (Homo sapiens) (UniProt Q9UGM1+Q9GZZ6)"
obs_value = "20%"

[[record]]
substance = "H-GRYRSPYDRRRRYRRIRD-NH2"
target_or_test_system = "Neuronal acetylcholine receptor; alpha9/alpha10 (Homo sapiens) (UniProt Q9UGM1+Q9GZZ6)"
obs_value = "10%"

[[record]]
substance = "H-GRYRSPRDRRRRYRRITD-NH2"
target_or_test_system = "Neuronal acetylcholine receptor; alpha9/alpha10 (Homo sapiens) (UniProt Q9UGM1+Q9GZZ6)"
obs_value = "10%"

[[record]]
substance = "H-GRYRSPYDARRRYRRITD-NH2"
target_or_test_system = "Neuronal acetylcholine receptor; alpha9/alpha10 (Homo sapiens) (UniProt Q9UGM1+Q9GZZ6)"
obs_value = "20%"

